B1: MNAT1 (parent)
chain: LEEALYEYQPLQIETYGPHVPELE

Variants of: B1
Test: protein stability index of a GFP-peptide fusion (GPS, HEK-293T) (PSI 1-6); higher = more stable;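 also: lentivirally expressed fusions sorted by FACS into six bins by GFP to DsRed ratio, PSI derived from sequencing read proportions per bin multiplied by bin number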
Conditions: c terminus: a fixed tail appended
Observed property: protein stability index
Could you respond with only the numeric value?

Worked examples, 4 variants total:
Residue sequence | Assay result
LEEAKYEYQPLQIETYGPHVPELE [L5K] | 5.06
LEEALYEYQPLQIETYGPHVFELE [P21F] | 1.44
LEEADYEYQPLQIETYGPHVPELE [L5D] | 5.12
REEALYEYQPLQIETYGPHVPELE [L1R] | 4.12

Problem: Return protein stability index for the following variant: LEEALYEYYPLQIETYGPHVPELE [Q9Y]
Result: 2.43

Problem: Return protein stability index for the following variant: LEEALYEYQYLQIETYGPHVPELE [P10Y]
Result: 3.09

Problem: Return protein stability index for the following variant: LEEALYEYQPLQIFTYGPHVPELE [E14F]
Result: 2.01

Problem: Return protein stability index for the following variant: LEEALYEQQPLQIETYGPHVPELE [Y8Q]
Result: 5.5

Problem: Return protein stability index for the following variant: LEEALYEYQPLQKETYGPHVPELE [I13K]
Result: 4.9
